Tested on: LOX IMVI melanoma
Assay: NCI-60 one-dose screen, 48 h (100 = growth as untreated, 0 = no growth, -100 = all killed)
Settings: 10 µM unless noted
This is part of a sample that, as a whole, favours compounds with a hit. Of some 83,000 tested, about 20% had one in any assay. The source made the active and inactive calls. Rule for the calls: active = growth percent below 10; inactive = the rest.
MEASUREMENT KIND: growth

The examples below pair each entry with its known result.
MOLECULAR STRING: CN(C(=O)c1ccccc1)N(C)C(=O)c1ccccc1
growth: 106% (inactive)
--
MOLECULAR STRING: Cc1c(C(N)=O)sc2ncn(CC(=O)Nc3ccc(Cl)cc3)c(=O)c12
growth: 96.8% (inactive)
--
MOLECULAR STRING: CCOC(Cc1c(N)[nH]c(=S)[nH]c1=O)OCC
growth: 95.3% (inactive)
--
MOLECULAR STRING: Clc1ccc(-n2cnc3c(Cl)ncnc32)cc1Cl
growth: 36.6% (inactive)

Here is another compound to look at.
-- ask Quick check: growth on LOX IMVI melanoma, item `Nc1nc(SCc2ccccc2Cl)c(-c2ccccc2)c(SCc2ccccc2Cl)n1` ?
-- reply 84.7% (inactive)

###

Test system: UO-31 renal
Experiment: NCI-60 one-dose screen, 48 h (100 = growth as untreated, 0 = no growth, -100 = all killed)
Details: 10 µM unless noted
This is part of a sample that, as a whole, favours compounds with a hit. Of some 83,000 tested, about 20% had one in any assay.
In plain terms, low growth, meaning strictly below 80%, gives 1.0, and everything else gives 0.0.

Example results:
COMPOUND: Cc1ccccc1-c1cc(Cc2ccccc2O)c(=O)[nH]n1
ASSIGNED LABEL: 1.0
//
COMPOUND: COc1ccc(C2CC(c3ccc(OC)c(OC)c3)=NN2C(=O)c2cc(OC)c(OC)c(OC)c2)c(OC)c1 (stereo unspecified)
ASSIGNED LABEL: 1.0
//
COMPOUND: CC(=O)NCCSC(=O)C(=O)SCCNC(C)=O
ASSIGNED LABEL: 0.0

Please find the next compound below.
-- ask # check: growth < 80% for CN1CCCC1c1cccnc1 (stereo unspecified)
-- reply 0.0

###

System: CCRF-CEM leukemia
Assay: NCI-60 one-dose screen, 48 h (100 = growth as untreated, 0 = no growth, -100 = all killed)
Conditions: 10 µM unless noted
About 83,000 compounds went through this panel and 20% of them were active in at least one assay; those are over-represented in the sample as a whole. Activity calls are given as the source filed them. Rule for the calls: active = growth percent below 10; inactive = the rest.
Listed here are compounds together with their documented growth.

The examples below pair each entry with its known result.
COMPOUND: NCCCc1nnc(CCC(=O)c2nc3ccccc3[nH]2)o1
growth: 90.9% (inactive)
--
COMPOUND: C/C(=N/N=C(N)N)c1ccc(Cl)cc1
growth: 87.9% (inactive)

-- ask Quick check: growth on CCRF-CEM leukemia, item `CCCC[N+](CCCC)=c1ccc2nc3c(C)cc(N(CC)CC)cc3sc-2c1` ?
-- reply -15.7% (active)

-- ask Quick check: growth on CCRF-CEM leukemia, item `CCCCCCCCCCC[C@@H](C[C@H]1OC(=O)[C@H]1CCCCCC)OC(=O)[C@@H](CC(C)C)NC=O` ?
-- reply 27.6% (inactive)

-- ask Quick check: growth on CCRF-CEM leukemia, item O=c1ccn(C2OC(CO)C(O)C2F)c(=O)[nH]1 (centres undefined) ?
-- reply 119% (inactive)

###

System: HOP-62 NSCLC
Test: NCI-60 one-dose screen, 48 h
Settings: 10 µM unless noted
The panel holds about 83,000 compounds, 20% with a hit somewhere; the sample as a whole holds those more often. Active and inactive are the calls of the source. The calls were made as follows: active = growth percent below 10; inactive = the rest.
Select the correct class. Options are active, inactive and nothing else.

Example results:
COMPOUND: COc1cc(C2C=C(c3ccc(C)cc3)Nc3nc(SC)[nH]c(=O)c32)ccc1Oc1ccnc2cc(Cl)ccc12 (stereo not given)
ASSIGNED LABEL: inactive
//
COMPOUND: COc1ccc(C(=O)Nc2nc(-c3ccc(Cl)cc3)cs2)cc1
ASSIGNED LABEL: inactive
//
COMPOUND: O=[N+]([O-])c1ccc(Oc2cccc(C(F)(F)F)c2)c([N+](=O)[O-])c1
ASSIGNED LABEL: inactive
//
COMPOUND: Clc1ncn[nH]1
ASSIGNED LABEL: inactive
//
COMPOUND: COc1cc(/C=C/c2nnc(-c3cc(-c4ccccc4)n[nH]3)o2)cc(OC)c1OC
ASSIGNED LABEL: inactive

-- ask Which outcome was entered for the compound `CC(=O)c1ccc2c3c(n(C)c2c1)CCCC3` in this test?
-- reply inactive

-- ask Which outcome was entered for the compound `CCCc1cc(=O)n2c(C(=O)Nc3ccccc3OC)c(C(=O)Nc3ccc(F)cc3)sc2n1` in this test?
-- reply active

###

System: PC-3 prostate
Assay: NCI-60 one-dose screen, 48 h
Conditions: 10 µM unless noted
About 83,000 compounds went through this panel and 20% of them were active in at least one assay; those are over-represented in the sample as a whole. Calls of active or inactive are those of the source. Rule for the calls: active = growth percent below 10; inactive = the rest.
Select the correct class. Options are active, inactive and nothing else.

COMPOUND: NC(=O)c1ncn([C@@H]2O[C@H](CO)[C@@H](O)[C@H]2O)n1
MEASURED ON: PC-3 prostate
ASSIGNED LABEL: inactive

-- ask Which outcome was entered for the compound `O=C(Cc1ccccn1)C(F)(F)C(F)(F)C(F)(F)F` in this test?
-- reply inactive

-- ask Which outcome was entered for the compound `COc1ccc(-c2noc(N)c2-c2cc(OC)c3c(c2)OCO3)cc1` in this test?
-- reply inactive

-- ask Which outcome was entered for the compound `O=c1[nH]c(Cl)nc2c1cnn2-c1ccccc1` in this test?
-- reply inactive

###

Tested on: BT-549 breast
Experiment: NCI-60 one-dose screen, 48 h (100 = growth as untreated, 0 = no growth, -100 = all killed)
Details: 10 µM unless noted
The panel holds about 83,000 compounds, 20% with a hit somewhere; the sample as a whole holds those more often.
In plain terms, low growth, meaning strictly below 50%, gives yes (1), and everything else gives no (0).

Example results:
COMPOUND: Cc1ccc(NC(=O)CSc2nnc3n(Cc4ccccc4)c(=O)c4c(C)c(C(N)=O)sc4n23)cc1
ASSIGNED LABEL: no (0)

COMPOUND: Cc1c(C)c(N2C(=O)C=CC2=O)c(C)c(C)c1N1C(=O)C=CC1=O
ASSIGNED LABEL: no (0)

COMPOUND: CC1=NN(c2ccccc2Cl)C(=O)/C1=C\c1cn(S(=O)(=O)c2ccc(C)cc2)c2ccccc12
ASSIGNED LABEL: no (0)

COMPOUND: Cc1nnc(Nc2ccc(NC(=O)Nc3ccc(Cl)cc3)cc2)c2ccccc12
ASSIGNED LABEL: yes (1)

COMPOUND: CN(C)c1ccc2[nH]c3c(C(N)=O)cc(=O)c(=O)c=3oc2c1
ASSIGNED LABEL: yes (1)

-- ask # check: growth < 50% for `O=C(CCc1nnc2sc(Cc3ccccc3Cl)nn12)c1nc2ccccc2[nH]1`
-- reply no (0)

-- ask # check: growth < 50% for CC1=C(C(=O)Nc2ccccc2)C(c2ccc3c(c2)OCCO3)NC(=O)N1 (stereo not given)
-- reply no (0)

-- ask # check: growth < 50% for `COc1ccc2c(c1)[nH]c(=O)c1c3cc(OC)c(OC)cc3cn21`
-- reply yes (1)

-- ask # check: growth < 50% for `CCCCCCCCSc1ncnc2c1ncn2CO`
-- reply no (0)

-- ask # check: growth < 50% for `CN(C)c1cccc2c(S(=O)(=O)N[C@H]3CC[C@H]4[C@@H]5CCc6cc(O)ccc6[C@H]5CC[C@]34C)cccc12`
-- reply yes (1)

###

Test system: HCT-15 colon
Test: NCI-60 one-dose screen, 48 h (100 = growth as untreated, 0 = no growth, -100 = all killed)
Details: 10 µM unless noted
This is part of a sample that, as a whole, favours compounds with a hit. Of some 83,000 tested, about 20% had one in any assay. Activity calls are given as the source filed them. The calls were made as follows: active = growth percent below 10; inactive = the rest.
MEASUREMENT KIND: growth

The examples below pair each entry with its known result.
COMPOUND: COc1ccc(COC(C)=O)cc1
growth: 97.6% (inactive)
--
COMPOUND: COc1ccc(/C=C2\COc3ccc(O)c(O)c3C2=O)cc1OC
growth: -39.4% (active)
--
COMPOUND: COc1ccc(-c2nn(-c3cccc(Cl)c3)cc2C2CC(c3ccccc3)=NN2C(C)=O)cc1 (stereo unspecified)
growth: 86% (inactive)

-- ask Data request, read-out growth, for `Clc1nc(Cl)c2ncn(-c3ccccc3)c2n1`
-- reply 44.8% (inactive)

-- ask Data request, read-out growth, for `CCCCCCCCCCCCCCCCCc1nccn1CCO`
-- reply 8.52% (active)

-- ask Data request, read-out growth, for CC12CCC3C(CCC4CC(=O)/C(=C\O)CC43C)C1CCC(=O)O2 (stereo unspecified)
-- reply 121% (inactive)
